experiment-summary: JC-1 mitochondrial potential readout, lung cancer cells – cell-based, A549, JC-1 fluorescence, basal, 24 h, 100 nL, profiling panel (AID 1138);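 note: A549 lung adenocarcinoma cells under basal conditions with no added stimulus; test concentration not given here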
experimental-setup: higher = more signal

molecule	z-score
CC(C)C(O)C1C=CC2C(=O)N(c3ccccc3)C(=O)C2N1Nc1ccccc1 (stereo not drawn)	0.0126
CCCCC(=C=CC[C@H](O)c1ccc(OCCO)cc1)CCO	0.25
C=CCC(OC(C)=O)[C@@H]1[C@@H](N(Cc2cc3ccccc3o2)C(=O)Cc2ccc(F)cc2)c2cc(OCCCO)ccc2N1C(=O)Cc1ccc2ccccc2c1 (stereo partly drawn)	1.75
COc1cc2c(cc1O)C(c1cccs1)N(Cc1cc3c(cc1Br)OCO3)CC2 (stereo not drawn)	-1.56
O=C(c1ccccc1)N1C(=O)[C@]2(Cc3ccccc31)N=C(c1ccc(OCCCO)cc1)O[C@@H]2c1ccccc1	-2.12
CC(=O)NCCCC[C@@H]1NC(=O)[C@@H]2C[C@H](C(=O)NCCCCCN)[C@H](c3cccc(OCCO)c3)N2C1=O	0.989
[N-]=[N+]=NCc1ccccc1C[C@@]1(C(N)=O)N=C(c2ccc(OCCCO)cc2)O[C@@H]1c1ccccc1	0.078
CC(C)(C)OC(=O)CC[C@@]1(C(=O)NCC(O)CO)N=C(c2ccc(OCCCO)cc2)O[C@@H]1c1ccccc1CN=[N+]=[N-] (stereo partly drawn)	0.404

* * *

Recorded measurements of z-score, one per entry
experiment-summary: blockers of DNA damage checkpoint Chk1 activation – imaging, HeLa, hydroxyurea, phospho-Chk1 antibody, percent positive cells, primary screen (AID 1186)
experimental-setup: hydroxyurea-induced phospho-Chk1 immunofluorescence imaging, higher = more signal
readout-name: z-score

structure-as-smiles	readout-name	value-reported
COCCOC(=O)N1C(=O)[C@@]2(c3cc(C#CC4(O)CCCCCC4)ccc31)[C@H](C(=O)Nc1nc3ccccc3s1)[C@H]1C(=O)O[C@H](c3ccccc3)[C@H](c3ccccc3)N1[C@@H]2c1ccc(O)cc1	z-score	-0.205
CCOC(=O)C[C@H]1[C@H](OC(=O)c2ccc(C(=O)c3ccccc3)cc2)[C@@H](NC(=O)c2ccc3ccccc3n2)c2cc(OCCCO)ccc2N1C(=O)Cc1ccc(OC)cc1	z-score	-0.824
C=CCOC(=O)[C@@]1(Cc2ccccc2)C[C@H]2CO[C@H](c3ccc(OC)cc3)N2C1=O	z-score	-0.0248

* * *

experiment-summary: S. pombe growth modifiers, basal conditions – strain 972, OD600, 24 h, no modulator, primary screen (AID 1090);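 note: basal condition with compound alone and no growth modifier present; test concentration not given here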
experimental-setup: S. pombe 972 growth, higher = more signal, called active from +8 up or from −8 down
Assign classes using reported z-score values and the ranges low group (below -1), middle group (-1 to below 0.7), high group (0.7 or more), please.

molecule	category-label
COc1cc(OC)c(C(O)C2C=CC3C(=O)N(Cc4ccccc4)C(=O)C3N2n2cnnc2)cc1Br (stereo not drawn)	low group
CCOC(=O)C[C@H]1[C@H](OC(=O)c2cc3ccccc3oc2=O)[C@@H](NC(=O)CC(C)C)c2cc(OCCCO)ccc2N1C(=O)c1ccc2ccccc2n1	middle group
CCOC(=O)C1=C[C@@H](C(C)C)N(S(=O)(=O)c2ccc(C)cc2)[C@H]1c1ccc(C(F)(F)F)cc1	high group
COC(=O)[C@@]1(Cc2ccc(F)cc2)[C@H]2c3cc(C(=O)N(C)C)n(CCc4ccc(OC)c(Br)c4)c3C[C@H]2CN1C(=O)c1ccccc1	low group
CC(C)C(O)C1C=CC2C(=O)N(c3ccccc3)C(=O)C2N1Nc1ccccc1 (stereo not drawn)	low group
C=C(/C(=C/C[C@H](OC(=O)c1ccncc1)c1ccc(CO)o1)c1cnc2ccccc2c1)C(C)C	low group
CCOC(=O)C1=CC[C@@H](c2ccccc2)N(S(=O)(=O)c2ccc(C)cc2)[C@H]1c1ccccc1	high group
Cc1ccc(S[C@]2(C(=O)NCC(F)(F)F)CC(=O)N(Cc3cc(C(F)(F)F)cc(C(F)(F)F)c3)[C@@H]2c2ccc(CO)cc2I)cc1	low group
CCOC(=O)C[C@H]1[C@H](OC(=O)c2ccc(C(=O)c3ccccc3)cc2)[C@@H](NC(=O)c2ccc(-c3ccccc3)cc2)c2cc(OCCCO)ccc2N1C(=O)Cc1ccc(OC)cc1	high group
CN1C(=O)C2C=CC(C(O)c3cccn3C)N(Nc3ccc([N+](=O)[O-])cc3[N+](=O)[O-])C2C1=O (stereo not drawn)	high group
Cc1ccc(S[C@]2(C(=O)NCc3ccccc3)CC(=O)N(C3CCCCC3)[C@@H]2c2ccc(CO)cc2I)cc1	middle group
CC(C)N1C(=O)c2ccccc2[C@@H](C(=O)NCCN2CCOCC2)[C@@H]1c1ccc(CO)cc1	middle group
COc1cc2c(cc1O)C(C1CC1)N(Cc1cccc(OC(F)(F)F)c1)CC2 (stereo not drawn)	low group
COCCOC(=O)N1C(=O)[C@@]2(c3cc(C#CC4(O)CCCCCC4)ccc31)[C@H](C(=O)N1CCc3cc(OC)c(OC)cc3C1)[C@H]1C(=O)O[C@H](c3ccccc3)[C@H](c3ccccc3)N1[C@@H]2c1ccc(OCCO)cc1	high group
CC(c1ccccc1)C(O)C1C=CC2C(=O)N(C)C(=O)C2N1Nc1ccccc1 (stereo not drawn)	middle group
CC(=O)N1CC2(CC2)CC1c1ccccc1 (stereo not drawn)	middle group

* * *

assayed-target: E3 ubiquitin-protein ligase XIAP (Homo sapiens)
experiment-summary: small molecules binding XIAP protein – biophysical, small-molecule microarray, fluorescence 635 nm, primary screen (AID 1181);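 note: score merges 667 nm emission and signal to noise over triplicate slides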
experimental-setup: higher = more signal
readout-name: composite z-score

compound	value-reported
CCOC(=O)C[C@H]1[C@H](OC(=O)c2cc3ccccc3oc2=O)[C@@H](NC(=O)CC(C)C)c2cc(OCCCO)ccc2N1C(=O)c1ccc2ccccc2n1	-0.102
C=CCNC(=O)[C@@H]1[C@H]2C(=O)O[C@H](c3ccccc3)[C@H](c3ccccc3)N2[C@H](c2ccc(OCCO)cc2)[C@@]12C(=O)N(C(=O)OCCOC)c1ccc(C#Cc3ccc(OC)cc3)cc12	0.102
NCCCCCNC(=O)[C@@H]1C[C@@H]2C(=O)N[C@@H](CCCCN)C(=O)N2[C@@H]1c1ccc(O)cc1	0.554
O=C1C2C=CC(C(O)c3ccco3)N(Nc3ccccc3F)C2C(=O)N1c1ccccc1 (configuration not stated)	0.318
C=C[C@H](C)[C@H](OC(=O)Nc1ccc(SC)cc1)c1ccc(OCCO)cc1	0.133
C[C@@H]1NC(=O)[C@@H](Cc2ccccc2)NC(=O)[C@@]23C(=O)N[C@@H](Cc4ccccc4)C2[C@H](C)[C@@]2(C)O[C@H]2C3/C=C/C/C=C\CNC1=O (some centres not stated)	-0.0138
COc1ccc(CCNC(=O)[C@@]2(c3ccc([N+](=O)[O-])cc3)CC(=O)N(C3CCCCC3)[C@@H]2c2ccc(CO)cc2)cc1	-0.0333
O=C1OCCC/C=C\[C@H]2OC34C=CCN(c5ccc6ccccc6c5)C(=O)[C@H]3N(CCO)C(=O)[C@@H]4C12 (some centres not stated)	0.275
C=CC[C@H](OC(=O)Nc1ccc(SC)cc1)c1ccc(O)c2ccccc12	0.104
COCCCNC(=O)[C@@]1(Sc2ccc(C)cc2)CC(=O)N(C2Cc3ccccc3C2)[C@@H]1c1ccc(CO)cc1	-0.0367
CCOC(=O)C1=C[C@@H](c2ccccc2)N(S(=O)(=O)c2ccc(C)cc2)[C@H]1c1ccc(OC)cc1	-0.0428
CCOC(=O)C1=CC[C@@H](c2ccccc2)N(S(=O)(=O)c2ccc(C)cc2)[C@H]1c1ccccc1	0.0512

* * *

Recorded measurements of composite z-score, one per entry
experiment-summary: compounds binding Alexa647 anti-His antibody – biochemical, small-molecule microarray, 635 nm fluorescence, artefact control for SMM control protein annotation, primary screen (AID 1128);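 note: score merges feature fluorescence with signal-to-noise for each printed compound spot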
experimental-setup: higher = more signal
readout-name: composite z-score

compound	value-reported
CC1CC/C=C\[C@H]2OC34C=CCN(C(C)(C)C)C(=O)[C@H]3N(CCCCCO)C(=O)[C@@H]4C2C(=O)O1 (some centres not stated)	-1.24
[N-]=[N+]=Nc1ccccc1C[C@]1(C(=O)O)COC(c2ccc(OCCCO)cc2)=N1	-0.047
CCCN1C(=O)[C@@]2(Cc3ccccc31)N=C(c1ccc(OCCCO)cc1)O[C@H]2c1ccccc1	0.293
COCCOC(=O)N1C(=O)[C@@]2(c3cc(C#CC4=CCCCC4)ccc31)[C@H](c1ccccc1OCCO)N1[C@H](c3ccccc3)[C@H](c3ccccc3)OC(=O)[C@H]1[C@@H]2C(=O)N1CCN(c2ncccn2)CC1	0.624
Cc1ccc(S[C@]2(C(=O)NCC(F)(F)F)CC(=O)N(Cc3cc(C(F)(F)F)cc(C(F)(F)F)c3)[C@@H]2c2ccc(CO)cc2)cc1	1.86
O=c1cccc(-c2ccc([N+](=O)[O-])cc2)o1	0.504
C#CCN([C@@H](Cc1ccccc1)C(=O)OC)[C@@H](/C=C/C1CC1)[C@H](O)Cc1ccccc1	-0.429

* * *

experiment-summary: optical density shifts of acrAB sulA E. coli – strain DRC41, OD650, 48 h, E. coli filamentation inducer project, primary screen (AID 1152);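 note: E. coli MC1000 strain DRC41 lacking acrAB efflux pump and sulA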
experimental-setup: higher = more signal, called active from +8 up or from −8 down
Recorded measurements of z-score, one per entry
readout-name: z-score

compound	value-reported
O=c1cccc(-c2ccc([N+](=O)[O-])cc2)o1	0.609
COc1ccc([C@H]2OC[C@@H]3C[C@H](Cc4ccccc4)C(=O)N32)cc1	-0.446
CCCC=C(CCC)[C@@H](NP(=O)(c1ccccc1)c1ccccc1)c1ccc(-c2ccccc2)cc1	-1.61
CCCN1C(=O)[C@]2(Cc3ccccc31)N=C(c1ccc(OCCCO)cc1)O[C@@H]2c1ccccc1	-0.753
CC(=O)NCCCC[C@@H]1NC(=O)[C@@H]2C[C@H](C(=O)NCCCCCN)[C@H](c3ccc(O)cc3)N2C1=O	2.04
COC(=O)C(CC#Cc1ccc2c(c1)[C@]1(C(=O)N2)[C@H](c2ccc(O)cc2)N2[C@H](c3ccccc3)[C@H](c3ccccc3)OC(=O)[C@H]2[C@@H]1C(=O)NC[C@H](O)c1ccccc1)C(=O)OC	-0.994
COCCOC(=O)N1C(=O)[C@@]2(c3cc(C#CCCO)ccc31)[C@H](c1ccc(OCCO)cc1)N1[C@H](c3ccccc3)[C@H](c3ccccc3)OC(=O)[C@H]1[C@@H]2C(=O)Nc1nc2ccccc2s1	-0.0929
COc1ccccc1CN1C(=O)c2ccccc2[C@](Cc2ccccc2I)(C(=O)O)[C@@H]1c1ccc(CO)cc1	1.03
COc1ccc([Si](C)(C)[C@@H]2[C@@H](CCO)O[C@]3(C(=O)N(Cc4ccccc4)c4ccc(NC(=O)[C@H](C)O)cc43)[C@H]2C)cc1	0.573
C=CCC(OC(C)=O)[C@@H]1[C@@H](N(Cc2cccc3ccccc23)C(=O)Cc2ccc(F)cc2)c2cc(OCCCO)ccc2N1C(=O)c1ccc2ccccc2c1 (stereo not given in full)	0.978
O=C(NCCN1CCOCC1)[C@@H]1c2ccccc2C(=O)N(C2Cc3ccccc3C2)[C@H]1c1ccc(CO)cc1	2.03
C=CCN1Cc2ccccc2[C@@H]2OC(c3ccc(OCCCO)cc3)=N[C@]2(CC=C)C1=O	0.408
CCOC(=O)C[C@H]1[C@H](OC(=O)Cc2ccc3c(c2)OCO3)[C@@H](NC(=O)c2ccc3ccccc3n2)c2cc(OCCCO)ccc2N1C(=O)c1ccccc1	1.43
C=CC[C@@]1(C(=O)NCCCOC)N=C(c2ccc(OCCCO)cc2)O[C@@H]1c1ccccc1N=[N+]=[N-]	1.37
Cc1ccc(C(C)CC(O)C2C=CC3C(=O)N(c4ccccc4)C(=O)C3N2Nc2ccccc2)o1 (stereo not given)	-1.13
